Each item that follows carries a reported viability, T/C.
# Test system: 786-0 complex spheroid viability
# protocol-summary: Anticancer human tumor 786-0 cell line growth inhibition;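 further: spheroids exposed to agents for seven days before readout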
# condition: second compound 0.316 µM; first compound 0.3 µM; active compounds read low
Quick reminder: number only, in %, skip the unit.

>>> reported_measurement("CCc1c2c(nc3ccc(O)cc13)-c1cc3c(c(=O)n1C2)COC(=O)[C@]3(O)CC + NC1CCC(NC2CC2c2ccccc2)CC1")
6.29
>>> reported_measurement("NS(=O)(=O)OCC1CC(n2ccc3c(NC4CCc5ccccc54)ncnc32)CC1O (centres undefined) + NC1CC1c1ccc(-c2cccc(O)c2)cc1")
18.2
>>> reported_measurement("COc1cc(C2c3cc4c(cc3C(OC3OC5COC(C)OC5C(O)C3O)C3COC(=O)C23)OCO4)cc(OC)c1O (centres undefined) + NC1CC1c1ccc(-c2cccc(O)c2)cc1")
47.1
>>> reported_measurement("Nc1ncn(C2CC(O)C(CO)S2)c(=O)n1 (centres undefined) + NC1CC1c1ccc(-c2cccc(O)c2)cc1")
51
>>> reported_measurement("Nc1ccccc1NC(=O)c1ccc(CNC(=O)OCc2cccnc2)cc1 + NC1CCC(NC2CC2c2ccccc2)CC1")
109
>>> reported_measurement("Nc1ccn(C2OC(CO)C(O)C2(F)F)c(=O)n1 (centres undefined) + NC1CC1c1ccc(-c2cccc(O)c2)cc1")
3.51
>>> reported_measurement("Nc1ccn(C2OC(CO)C(O)C2(F)F)c(=O)n1 (centres undefined) + NC1CCC(NC2CC2c2ccccc2)CC1")
3.93
>>> reported_measurement("COc1cc(C2c3cc4c(cc3C(OC3OC5COC(C)OC5C(O)C3O)C3COC(=O)C23)OCO4)cc(OC)c1O (centres undefined) + NC1CCC(NC2CC2c2ccccc2)CC1")
45.8

Consider the record given below.
Query block: Give the measured viability, T/C of O=C(C=Cc1cccc(S(=O)(=O)Nc2ccccc2)c1)NO + NC1CC1c1ccc(-c2cccc(O)c2)cc1 .
Result block: 96.1
